# System: rat platelet
# Experimental Details: Inhibitory activity of aggregation in rat platelet
# Assay type: cell-based
# Conditions Used: rat platelet rich plasma, arachidonic acid (final concentration 0.5 mM) as inducer; read-out: C: Inhibitory activity of aggregation in rat platelet (IC50; μM)
Where a name gives a salt, the structure may show the parent alone.
Rule: IC50 below 0.2 µM gives Yes, anything at or above gives No.

Compound | Class Label
O=C(O)Cc1ccc(NC(=O)C(COc2ccccc2)NS(=O)(=O)c2ccc(F)cc2)cc1 (racemic) | No
CCSCCC(NS(=O)(=O)c1ccc(Cl)cc1)C(=O)Nc1ccc(CC(=O)O)cc1 (racemic) | Yes
CCCC(NS(=O)(=O)c1ccc(Cl)cc1)C(=O)Nc1ccc(CC(=O)O)cc1 (racemic) | No
O=C(O)CCCCCCNC(=O)C(Cn1ccnc1)NS(=O)(=O)c1ccc(Cl)cc1 (racemic) [Example 101, hydrochloride] | No
O=C(O)c1cccc(NC(=O)C(COC2CCCCO2)NS(=O)(=O)c2ccc(Cl)cc2)c1 (racemic) | No
CCSCC[C@H](NS(=O)(=O)c1ccc(Cl)cc1)C(=O)Nc1ccc(CC(=O)O)cc1 | Yes
O=C(O)Cc1ccc(NC(=O)C(COC2CCCCO2)NS(=O)(=O)c2ccc(Cl)cc2)cc1 (racemic) | Yes
